molecular target: CD40 immobilized on microassay plates (UniProt P25942 21-193, limits assumed); assay: serially diluted antibody on CD40 immobilized on microassay plates
Sequence (P25942 21-193 limits assumed): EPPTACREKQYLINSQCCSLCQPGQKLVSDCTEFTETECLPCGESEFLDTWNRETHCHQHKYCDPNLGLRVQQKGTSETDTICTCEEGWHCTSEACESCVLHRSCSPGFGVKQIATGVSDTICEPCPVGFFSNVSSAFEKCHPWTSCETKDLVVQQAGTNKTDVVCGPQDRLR
experimental-endpoint: Binding Data 2
When you answer, write just the number.

Here is how some binders turned out for Binding Data 2.
SGN-14 (parent murine antibody, donor) (antibody, V domains shown, Murine monoclonal antibody; also called S2C6; murine CD40 donor antibody) VH: EVQLQQSGPDLVKPGASVKISCKASGYSFTGYYIHWVKQSHGKSLEWIGRVIPNNGGTSYNQKFKGKAILTVDKSSSTAYMELRSLTSEDSAVYYCAREGIYWWGHGTTLTVS VL: DVVVTQTPLSLPVSLGAQASISCRSSQSLVHSNGNTFLHWYLQKPGQSPKLLIYTVSNRFSGVPDRFSGSGSGTDFTLKISRVEAEDLGVYFCSQTTHVPWTFGGGTKLEIQR: 1.33
hu sgn-1 (antibody, V domains shown) VH: EVQLVESGGGLVQPGGSLRLSCAASGYSFTGYYIHWVRQAPGKGLEWVARVIPNNGGTSYNQKFKGRFTISVDNSKNTLYLQMNSLRAEDTAVYYCAREGIYWWGQGTLVTVS VL: DIQMTQSPSSLSASVGDRVTITCRSSQSLVHSNGNTFLHWYQQKPGKAPKLLIYTVSNRFSGVPSRFSGSGSGTDFTLTISSLQPEDFATYYCSQTTHVPWTFGQGTKVEIKR: 19.3
hu sgn-27 (antibody, V domains shown) VH: EVQLVESGGGLVQPGGSLRLSCAASGYSFTGYYIHWVRQAPGKGLEWVARVIPNQGGTSYNQKFKGRFTLSVDNSKNTAYLQMNSLRAEDTAVYYCAREGIYWWGQGTLVTVS VL: DIQMTQSPSSLSASVGDRVTITCRSSQSLVHSNGNTFLHWYQQKPGKAPKLLIYTVSNRFSGVPSRFSGSGSGTDFTLTISSLQPEDFATYFCSQTTHVPWTFGQGTKVEIKR: 1.4

Please examine the following record next.
Entry hu sgn-0 (antibody, V domains shown, also called SGN-40; Template) VH: EVQLVESGGGLVQPGGSLRLSCAASGYSFTGYYIHWVRQAPGKGLEWVARVIPNNGGTSYNQKFKGRFTISRDNSKNTLYLQMNSLRAEDTAVYYCAREGIYWWGQGTLVTVS VL: DIQMTQSPSSLSASVGDRVTITCRSSQSLVHSNGNTFLHWYQQKPGKAPKLLIYTVSNRFSGVPSRFSGSGSGTDFTLTISSLQPEDFATYYCSQTTHVPWTFGQGTKVEIKR needs its Binding Data 2 filled in; supply it. 75.3
